- protocol_summary: Half life period was determine after peroral administration at 5 mpk in dog
- Assay type: ADME, organism-based, Canis lupus familiaris
- study_conditions: in vivo, po, 5 mg/kg
half-life overview
Please format your answer as a value with the unit trailing.

Answered cases to consult:
• O=C(N[C@H]1c2ccccc2OC[C@H]1O)[C@H](Cc1ccccc1)C[C@H](O)CN1CCN(Cc2ccc(-c3cccnc3)o2)C[C@H]1C(=O)NCC(F)(F)F = 41 min
• CC(C)(c1ccc(-c2ccncc2)o1)N1CCN(C[C@@H](O)C[C@@H](Cc2ccccc2)C(=O)N[C@H]2c3ccccc3OC[C@H]2O)[C@H](C(=O)NCC(F)(F)F)C1 = 70 min

Bench note: what half-life did O=C(N[C@H]1c2ccccc2OC[C@H]1O)[C@H](Cc1ccccc1)C[C@H](O)CN1CCN(Cc2ccc(-c3ccncc3)o2)C[C@H]1C(=O)NCC(F)(F)F show?
60 min
